Source of measurements: PubChem BioAssay (NCI)

Tested on: SNB-19 CNS
Assay: NCI tumour cell line growth inhibition, 48 h; in the data active = GI50 below about 0.43 µM; inactive = the rest
Outcomes: y for active, n for inactive

* COc1ccc(-c2nnc(N3CCN(C(=O)CN4CCN(c5ccccc5)CC4)CC3)nc2-c2ccc(OC)cc2)cc1 | n
* COc1ccccc1Nc1ncc(-c2ccccc2)o1 | n
* COc1cc(C2CC(c3cccc(Nc4ccncc4)c3)=NN2c2ccc(Cl)cc2)cc(OC)c1OC (configuration not stated) | n
* COC(=O)c1ccc(-c2c(C#N)[n+](=O)c3cc(Cl)c(Cl)cc3n2[O-])cc1 | n
* CN(C)C(=S)Sc1ccc([N+](=O)[O-])cc1[N+](=O)[O-] | n
* COc1cc(/C=C/C(=O)c2cccc(-n3cc(-c4ccc(Cl)cc4)[nH]c3=O)c2)ccc1O | n
* O=[N+]([O-])c1cccc2ccc(N/N=C/c3ccccc3O)nc12 | n
* CC1CCN(C(=O)OCc2nc3nc(Cl)nc(N4CCOCC4)c3[nH]2)CC1 | n
* Cc1ccc(Nc2oc(-c3ccccc3)nc2[P+](c2ccccc2)(c2ccccc2)c2ccccc2)cc1 | n
* CCc1ccc(/C=C/c2ccc(O)c3ncccc23)[n+](C)c1 | n
* C[C@@]12CCC[C@@](C)(C(=O)O)C1CC[C@]13CC(=O)[C@](CO)(C1)[C@@H](O)CC32 (some centres not stated) | n
* O=C1c2cc3c(cc2-c2c1c1cc(Cl)c(Cl)cc1c(=O)n2C[C@H](O)CO)OCO3 | y
* Cc1cc(N(CCCNc2ccnc3cc(Cl)ccc23)Cc2ccc3c(c2)OCO3)nc(N2CCOCC2)n1 | y
* CCCCCCCN=C(N)c1ccc(N2CCN(c3ccc(C(N)=NCCCCCCC)cc3)CC2)cc1 | n
* O=[N+]([O-])c1ccc(CI)cc1 | n
* O=C(NNc1ccccc1)C(=O)NNc1ccccc1 | n
* Nc1ccn(C2OC(CO)C(O)C2O)c(=O)n1 (configuration not stated) | n

###

# Lookup of reported TGI keyed by entry
System: NCI-H23 lung
Experiment: NCI tumour cell line growth inhibition, 48 h
attributeMeasured: TGI

• CCOC(=O)/C=C(\C(=O)OCC)n1ccc(=O)n(Cc2cn(CCCCOC(C)=O)nn2)c1=O = 32.3 µM
• Oc1ccc(Nc2c3ccccc3nc3occ(Cl)c23)cc1 = > 100 µM
• [N-]=[N+]=N/C1=C/CCCCC(=O)C1 = > 100 µM
• CSc1ccccc1C#C/C=C\C#Cc1ccccc1N = 37.3 µM
• Cc1cccc2c1Sc1ccccc1C2NC(=O)CCN(C)C (stereo unspecified) = > 100 µM
• O=[N+]([O-])c1cccc2ccc(N/N=C/c3ccccc3O)nc12 = > 100 µM
• CC1(C)N=C(N)N=C(N)N1c1ccc(CCCCc2ccc(Cl)c(S(=O)(=O)F)c2)c(Cl)c1 = 19 µM
• CN(CCN(C)C(=O)CCn1cc(F)c(=O)[nH]c1=O)C(=O)CCn1cc(F)c(=O)[nH]c1=O = > 100 µM
• COc1ccc2c(c1)CCCN2CCCCCCCCCCN(CCC(C)C)CCC(C)C = 12.7 µM
• O=C1CCC(=O)c2c1c(O)c1ccncc1c2O = 31.9 µM
• CC(=O)OCC1OC(OC2CC3C(C)(C)C(O)CC[C@]3(C)C3CCC45CC4(CCC5[C@@H](C)CC(O)C(O)C(C)(C)O)[C@]23C)C(O)C(O)C1O (stereo partly specified) = > 10 µM
• CN1CC[C@@H](c2c(O)cc(O)c3c(=O)cc(-c4ccc(C(F)(F)F)cc4Cl)oc23)[C@@H]1CO = 37.3 µM
• O=C1C=C(NCCOCCO)C(=O)c2c(O)ccc(O)c21 = 47.9 µM
• O=C(NNc1ccccc1)C(=O)NNc1ccccc1 = > 100 µM
• Nc1c(C(=O)c2ccccc2)cnn1-c1ccc(F)cc1 = > 25 µM
• CCOC(=O)/C=C(/C(=O)OCC)n1cnc2c(=O)[nH]c(NC(C)=O)nc21 = > 100 µM
• C[Si](C)(C)/C(Br)=C\CCN1C(=O)CCC1=O = > 100 µM
• CC(=O)OCC1OC(n2c(C)cc(C)c(C#N)c2=S)C(OC(C)=O)C(OC(C)=O)C1OC(C)=O (stereo unspecified) = > 100 µM
• CCOC(=O)C(CCN1CCC2(CC1)C(=O)N(C)CN2c1ccccc1)C(=O)OCC = > 100 µM
• NCC(=O)Nc1ccc(S(=O)(=O)O)c2cc(S(=O)(=O)O)cc(S(=O)(=O)O)c12 = > 100 µM
• COC1CCCCN1C(=O)c1ccccc1 (stereo unspecified) = > 25.3 µM
